- Tested on: CP185
- METHOD SUMMARY: qHTS profiling for inhibitors of Plasmodium falciparum proliferation (AID 504749); further: nearly all actives have a fitted effect of over 60% in size
- CONDITION INFO: P. falciparum in erythrocytes, SYBR Green DNA, 72 h; series mostly up to 28.7 µM
Records with an inconclusive call do not appear. The source made the active and inactive calls. The call rests on the fitted dose curve; in most records, active means well fitted inhibition curve with a large enough effect; inconclusive means small, poorly fitted or top-dose-only effect; inactive means flat fitted curve, though single readings scatter. Numbered stars: 1 amine (or outer) side, 2 acyl side, 3 side chain; on linkers, the order of the positions; unused ones are H or OH. Bridge positions count the residues as written; N and C are the ends. Square brackets hold non-standard residues; d marks the D form. Peptide text beside a SMILES is read from it. * marks the point of attachment. ξ: configuration not given here. ΔAla(Z-3-ureido) = NC(=O)N/C=C(\N)C(=O)O; ξDab(CH2SO3H) = NC(CCNCS(=O)(=O)O)C(=O)O; X2 = NC1=NC(O)CC(C(N[*:1])C(=O)[*:2])N1; Heptanoyl(6-Me) = CC(C)CCCCC(=O)*; ξβ3hOrn = NCCCC(N)CC(=O)*; Orn = NCCC[CH](N)C(=O)O; Dab = NCC[CH](N)C(=O)O; Dap = NC[CH](N)C(=O)O
Assign a class; possible classes are 1 (yes) = active, 0 (no) = inactive

>>> class_name("O=C(O)c1ccccc1-c1c2cc(Br)c(=O)c(Br)c-2oc2c(Br)c(O)c(Br)cc12")
"0 (no)"
>>> class_name("CCC(C)C1NC(=O)C(CCNCS(=O)(=O)O)NC(=O)C(NC(=O)C(CCNCS(=O)(=O)O)NC(=O)C(NC(=O)C(CCNCS(=O)(=O)O)NC(=O)CCCCC(C)C)C(C)O)CCNC(=O)C(C(C)O)NC(=O)C(CCNCS(=O)(=O)O)NC(=O)C(CCNCS(=O)(=O)O)NC(=O)C(C(C)CC)NC1=O (stereo not drawn) ({Heptanoyl(6-Me)}-[ξDab(CH2SO3H)]T[ξDab(CH2SO3H)][Dab][ξDab(CH2SO3H)]II[ξDab(CH2SO3H)][ξDab(CH2SO3H)]T; lactam 4-C; configuration not given here)")
"0 (no)"
>>> class_name("O=C(OCC1OC(OC(=O)c2cc(O)c(O)c(OC(=O)c3cc(O)c(O)c(O)c3)c2)[C@@H](OC(=O)c2cc(O)c(O)c(OC(=O)c3cc(O)c(O)c(O)c3)c2)C(OC(=O)c2cc(O)c(O)c(OC(=O)c3cc(O)c(O)c(O)c3)c2)C1OC(=O)c1cc(O)c(O)c(OC(=O)c2cc(O)c(O)c(O)c2)c1)c1cc(O)c(O)c(OC(=O)c2cc(O)c(O)c(O)c2)c1 (stereo partly drawn)")
"1 (yes)"
>>> class_name("CNCC(=O)NC(CCCN=C(N)N)C(=O)NC(C(=O)NC(Cc1ccc(O)cc1)C(=O)NC(C(=O)NC(Cc1cnc[nH]1)C(=O)N1CCCC1C(=O)NC(C)C(=O)O)C(C)C)C(C)C (stereo not drawn)")
"0 (no)"
>>> class_name("CC1(C)C(/C=C/C=C/C=C/C=C2\\N(CCCCS(=O)(=O)O)c3ccc4ccccc4c3C2(C)C)=[N+](CCCCS(=O)(=O)[O-])c2ccc3ccccc3c21")
"0 (no)"
>>> class_name("CCC1NC(=O)C(NC(=O)c2ncccc2O)C(C)OC(=O)C(c2ccccc2)NC(=O)C2CC(=O)CCN2C(=O)C(Cc2ccccc2)N(C)C(=O)C2CCCN2C1=O (stereo not drawn)")
"0 (no)"
>>> class_name("CC(C)C[C@H](NC(=O)[C@@H](Cc1c[nH]c2ccccc12)NC(=O)[C@@H](Cc1ccc(O)cc1)NC(=O)[C@@H](CO)NC(=O)[C@@H](Cc1c[nH]c2ccccc12)NC(=O)C(Cc1cnc[nH]1)NC(=O)C1CCC(=O)N1)C(=O)N[C@@H](CCCN=C(N)N)C(=O)N1CCC[C@@H]1C(=O)NCC(N)=O (stereo partly drawn)")
"0 (no)"
>>> class_name("CC(=O)OCC(=O)[C@@]1(O)CCC2C3CCC4=CC(=O)CC[C@]4(C)C3=CC[C@@]21C (stereo partly drawn)")
"0 (no)"
>>> class_name("CC(=O)OCC1=C(C(=O)O)N2C(=O)C(NC(=O)Cc3ccccc3)C2SC1 (stereo not drawn)")
"0 (no)"
>>> class_name("CC(N)C(=O)NCC(=O)NC1CSSCC(C(=O)O)NC(=O)C(CO)NC(=O)C(C(C)O)NC(=O)C(Cc2ccccc2)NC(=O)C(C(C)O)NC(=O)C(CCCCN)NC(=O)C(Cc2c[nH]c3ccccc23)NC(=O)C(Cc2ccccc2)NC(=O)C(Cc2ccccc2)NC(=O)C(CC(N)=O)NC(=O)C(CCCCN)NC1=O (stereo not drawn)")
"0 (no)"

IN: Kindly provide the recorded test outcome for the following compound: CC(C)CC1NC(=O)C(CCCN)NC(=O)C(C(C)C)NC(=O)C2CCCN2C(=O)C(Cc2ccccc2)NC(=O)C(CC(C)C)NC(=O)C(CCCN)NC(=O)C(C(C)C)NC(=O)C2CCCN2C(=O)C(Cc2ccccc2)NC1=O (stereo not drawn) (cyclo(FPV[Orn]LFPV[Orn]L); configuration not given here)
OUT: 1 (yes)

IN: // return assay outcome for NC(=O)CCC1NC(=O)C(Cc2ccccc2)NC(=O)C(Cc2ccc(O)cc2)NC(=O)CCSSCC(C(=O)N2CCCC2C(=O)NC(CCCN=C(N)N)C(=O)NCC(N)=O)NC(=O)C(CC(N)=O)NC1=O (stereo not drawn)
OUT: 0 (no)

IN: Called result for NCCCC(N)CC(=O)NC1CNC(=O)C(C2CC(O)N=C(N)N2)NC(=O)/C(=C/NC(N)=O)NC(=O)C(CO)NC(=O)C(CO)NC1=O (stereo not drawn) (ξβ3hOrn-[Dap]SS[ΔAla(Z-3-ureido)][X2]; lactam 1-C; configuration not given here)
OUT: 0 (no)
